B1: SMG5 (parent)
chain: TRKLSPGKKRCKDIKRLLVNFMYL

variants of: B1; assay: protein stability index of a GFP-peptide fusion (GPS, HEK-293T) (PSI 1-6); higher = more stable; conditions: c terminus: a fixed tail appended;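 note: lentivirally expressed fusions sorted by FACS into six bins by GFP to DsRed ratio, PSI derived from sequencing read proportions per bin multiplied by bin number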
protein stability index by entry:
metric_name: protein stability index

>  <mutant_code>
K12G

>  <metric_name>
protein stability index

>  <reported_value>
2.95

$$$$
>  <mutant_code>
Y23A

>  <metric_name>
protein stability index

>  <reported_value>
2.85

$$$$
>  <mutant_code>
R16D

>  <metric_name>
protein stability index

>  <reported_value>
1.6

$$$$
>  <mutant_code>
K12W

>  <metric_name>
protein stability index

>  <reported_value>
3.15

$$$$
>  <mutant_code>
D13Q

>  <metric_name>
protein stability index

>  <reported_value>
3.52

$$$$
>  <mutant_code>
G7A

>  <metric_name>
protein stability index

>  <reported_value>
2.87

$$$$
>  <mutant_code>
R10N

>  <metric_name>
protein stability index

>  <reported_value>
3.09

$$$$
>  <mutant_code>
D13S

>  <metric_name>
protein stability index

>  <reported_value>
2.42

$$$$
>  <mutant_code>
L24W

>  <metric_name>
protein stability index

>  <reported_value>
1.9

$$$$
>  <mutant_code>
L18A

>  <metric_name>
protein stability index

>  <reported_value>
1.41

$$$$
>  <mutant_code>
K9D

>  <metric_name>
protein stability index

>  <reported_value>
3.59

$$$$
